# System: T-Jurkat cells
# procedure summary: Dye-based proliferation assay VPD450 (flow cytometry), T-Jurkat
# Format: cell-based, human
# condition details: Homo sapiens, 48 h
# Description: Figure 4. […] Cell proliferation was analysed using flow cytometry.
pEC50: −log10 of the molar value.
Outcome label depends on pEC50 relative to 5: at/above gives criterion met, below gives criterion not met.

Solved cases below.
compound | answer label
COc1c(C)c2c(c(O)c1C/C=C(\C)CCC(=O)Nc1ccc3scnc3c1)C(=O)OC2 [A5, N-(benzo[d]thiazol-5-yl) mycophenolate] | criterion not met
COc1c(C)c2c(c(O)c1C/C=C(\C)CCC(=O)O)C(=O)OC2 | criterion met

hey, is pEC50 for this one >= 5? `COc1ccc2nc(NC(=O)CC/C(C)=C/Cc3c(O)c4c(c(C)c3OC)COC4=O)sc2c1` criterion not met

hey, is pEC50 for this one >= 5? `COc1c(C)c2c(c(O)c1C/C=C(\C)CCC(=O)Nc1nc3ccc(C)cc3s1)C(=O)OC2` criterion not met

hey, is pEC50 for this one >= 5? COc1c(C)c2c(c(O)c1C/C=C(\C)CCC(=O)Nc1ccc3ncsc3c1)C(=O)OC2 [A4, N-(benzo[d]thiazol-6-yl) mycophenolate] criterion not met
